- METHOD_DESCRIPTION: Plasma pharmacokinetics of belzutifan, phase 1 study
- Format: in vivo, human
- CONDITION_SET: human, in vivo, po
READOUT_KIND: half-life

• CS(=O)(=O)c1ccc(Oc2cc(F)cc(C#N)c2)c2c1[C@H](O)[C@H](F)[C@@H]2F = 11.2 to 21.5 h
